Protocol: in vitro
Setup conditions: human, hela cells, % viability
viability at 28.5 h, 10 µM by entry:
Give just the numeric value; % need not be written.

Cc1cc(NC(=O)Nc2cccc(Cl)c2C)no1
87.3
CCCNc1cncc(-c2ccc(OCC)cc2)n1
99.8
Cc1cnc2c(C(=O)N3CCCC3c3ccccn3)cnn2c1 (stereo not shown)
91.8
O=C(O)CCc1nc2ccccc2n1C1CCCCC1
87.5
C[S+]([O-])c1ccc(-c2cnc(NCC3CCN(C(=O)OC(C)(C)C)CC3)cn2)cc1 (stereo not shown)
83.4
CCn1nnc2c(=O)n(CC(=O)Nc3ccccc3)cnc21
85.5

Query: // viability at 28.5 h, 10 µM lookup, key: Cc1cc(=O)oc2cc(NC(=S)NNC(=O)c3ccc4c(c3)c(C)c(C)n4Cc3ccccc3)ccc12
Reply: 89.6

Query: // viability at 28.5 h, 10 µM lookup, key: O=C1CC(C(=O)Nc2c(Cl)cccc2Cl)C2(CCCCC2)O1 (stereo not shown)
Reply: 95.9

Query: // viability at 28.5 h, 10 µM lookup, key: Brc1ccc(OCc2ccccc2)c(CNCc2ccccn2)c1 [CBK268340C]
Reply: 99.9

Query: // viability at 28.5 h, 10 µM lookup, key: CCNc1cc(-c2ccc(N3CCOCC3)cc2)ncn1
Reply: 115

---

viability at 28.5 h, 10 µM by entry:
Protocol: in vitro
Setup conditions: human, hela cells, % viability
Give the number first and the unit second.

Worked cases, viability at 28.5 h, 10 µM given:
O=C(N/N=C/c1ccccc1O)c1ccn(Cc2ccc(Cl)cc2)n1 [CBK262770]
91.3%
Cc1nc(-c2ccc(NCCc3nc(C4CC4)cs3)nc2)[nH]c(=O)c1C [CBK304424]
108%
CCOC(=O)CCNC(=O)C1(c2ccccc2)CCCC1 [CBK149543]
88.2%

Query: // viability at 28.5 h, 10 µM lookup, key: CC(Oc1ccccc1)C(=O)Nc1ccccc1NC(=O)c1ccco1 (stereo not drawn) [CBK269636]
Reply: 88.4%

Query: // viability at 28.5 h, 10 µM lookup, key: Cn1c(N2CC[C@H](O)C2)nc2cc(C(=O)NC3CCCC3)ccc21 [CBK306779]
Reply: 97.6%

Query: // viability at 28.5 h, 10 µM lookup, key: COc1cccc2cc(C(=O)NCC3COc4ccccc4O3)oc12 (stereo not drawn) [CBK149791]
Reply: 109%

---

viability at 28.5 h, 10 µM by entry:
Protocol: in vitro
Setup conditions: human, hela cells, % viability
Give just the numeric value; % need not be written.

Worked cases, viability at 28.5 h, 10 µM given:
O=C(NC1CCNC1)c1cccc(S(=O)(=O)NCc2ccsc2)c1 (stereo not drawn) [CBK306706]
88
COC(=O)c1ccccc1NC(=O)Cn1cncc1-c1ccc([N+](=O)[O-])cc1 [CBK266741]
91.9

API: the following record is the query input.
Query: // viability at 28.5 h, 10 µM lookup, key: COc1cccc2cc(C(=O)NCc3ccc(NS(C)(=O)=O)cc3)oc12 [CBK161479]
Reply: 70.8

---

viability at 28.5 h, 10 µM by entry:
Protocol: in vitro
Setup conditions: human, hela cells, % viability
Give just the numeric value; % need not be written.

Worked cases, viability at 28.5 h, 10 µM given:
CC(C)c1nn(C)c(N(C)C)c1CNCCc1cnn(C)c1 [CBK305135]
108
Cc1ccc2nc(O)c(C3=NN(C(=O)CCC(=O)O)C(c4ccco4)C3)c(-c3ccccc3)c2c1 (centres unmarked) [CBK267544]
91
O=C(CCn1c(C(F)F)cc2cccnc21)NCC1CCCO1 (centres unmarked) [CBK282165]
83
COc1cc(NC(=O)CC2(CC(=O)O)CCCCC2)ccc1N1CCCC1=O [CBK296637]
105

API: the following record is the query input.
Query: // viability at 28.5 h, 10 µM lookup, key: Nc1cc2cccnc2nc1-c1cccc2cccnc12 [CBK067609]
Reply: 99.9

These data points were gathered from paper PMC12040169.
